test: Log P determined in accordance with OECD Guideline No. 107 for the Testing of Chemicals (water/n-octanol); conditions: Log P determined in accordance with OECD Guideline 107 for the Testing of Chemicals, water/n-octanol 1:1 by weight, 20° C.
assay.endpoint: logP
The answer should be written as a number, with no unit following it.

Looking up "COC(C)(C)C" , I found its logP recorded as 1.12

Data point: "CC(=O)CC(C)C" ; logP = 1.4

CCCCCCCCCC(=O)N(C)C [Decanoic acid dimethyl amide] has a reported logP of 2.94
